Settings: in dichloromethane, 288.15 K
property label: solubility (mole fraction)
Could you keep your reply to the number by itself?

Data request: I would be grateful if you could share the reported solubility (mole fraction) for O=C(NC[C@H]1CN(c2ccc(N3CCOCC3=O)cc2)C(=O)O1)c1ccc(Cl)s1 .
Data returned: 0.00028

---

Conditions: in n-propanol, 298.15 K
property label: solubility (mole fraction)
Respond numerically, and do not add a unit to the figure.

Data request: Need solubility (mole fraction) of O=C(NC[C@H]1CN(c2ccc(N3CCOCC3=O)cc2)C(=O)O1)c1ccc(Cl)s1 , thanks.
Data returned: 1.77e-05

---

Details: in methanol, 293.15 K
property label: solubility (mole fraction)
Number, no unit, nothing else.

Data request: Give the measured solubility (mole fraction) of O=C(NC[C@H]1CN(c2ccc(N3CCOCC3=O)cc2)C(=O)O1)c1ccc(Cl)s1 .
Data returned: 3.63e-05
